Assignment: determine reported IC50 for the given molecules.
# Assay system: Ba/F3 cells EML4-ALK L1196M/G1202R (variant 1) (Homo sapiens, UniProt Q9UM73, G1202R/L1196M)
# Construct: echinoderm microtubule-associated protein-like 4 (EML4) gene and the ALK tyrosine kinase domain; the other entry of the earlier key: EML4 (Q9HC35, Echinoderm microtubule-associated protein-like 4)
# Sequence (Q9UM73 with tags, fused parts or gaps L1196M/G1202R): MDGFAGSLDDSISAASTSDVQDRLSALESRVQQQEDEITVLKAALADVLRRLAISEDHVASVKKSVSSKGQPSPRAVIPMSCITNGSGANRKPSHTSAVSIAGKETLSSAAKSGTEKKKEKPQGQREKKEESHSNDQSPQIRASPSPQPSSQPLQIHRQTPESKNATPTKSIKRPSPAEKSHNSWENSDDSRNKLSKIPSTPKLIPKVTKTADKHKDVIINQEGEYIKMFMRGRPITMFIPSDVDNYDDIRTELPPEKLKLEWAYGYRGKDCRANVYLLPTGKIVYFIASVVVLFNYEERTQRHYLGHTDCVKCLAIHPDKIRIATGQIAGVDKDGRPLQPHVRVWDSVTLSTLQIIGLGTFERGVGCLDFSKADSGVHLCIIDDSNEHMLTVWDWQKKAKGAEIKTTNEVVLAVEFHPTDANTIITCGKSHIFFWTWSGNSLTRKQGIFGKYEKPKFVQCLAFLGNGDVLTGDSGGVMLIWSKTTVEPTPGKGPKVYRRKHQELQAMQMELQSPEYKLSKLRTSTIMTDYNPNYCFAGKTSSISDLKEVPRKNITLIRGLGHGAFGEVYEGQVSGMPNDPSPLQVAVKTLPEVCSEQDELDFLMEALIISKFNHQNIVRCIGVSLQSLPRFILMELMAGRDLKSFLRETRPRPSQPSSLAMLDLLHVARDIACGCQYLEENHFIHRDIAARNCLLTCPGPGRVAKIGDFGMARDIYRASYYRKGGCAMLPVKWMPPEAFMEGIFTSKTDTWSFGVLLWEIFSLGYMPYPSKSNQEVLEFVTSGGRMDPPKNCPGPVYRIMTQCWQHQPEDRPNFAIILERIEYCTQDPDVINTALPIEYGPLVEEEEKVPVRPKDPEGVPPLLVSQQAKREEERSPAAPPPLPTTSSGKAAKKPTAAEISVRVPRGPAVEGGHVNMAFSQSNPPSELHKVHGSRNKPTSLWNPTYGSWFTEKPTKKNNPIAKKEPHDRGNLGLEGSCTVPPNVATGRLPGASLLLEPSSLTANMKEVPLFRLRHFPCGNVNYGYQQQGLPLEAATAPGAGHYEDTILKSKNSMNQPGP
# Experiment summary: Ba/F3 cell proliferation assay, EML4-ALK L1196M/G1202R (variant 1)
# Conditions: 72 hours, CellTiter-Glo

**Q:** Entry CCn1ncc2c1-c1cnc(N)c(c1)O[C@H](C)c1cc(F)ccc1-c1ncnn1C2 [Example 35] has what IC50?
**A:** 50 to 500 nM

**Q:** IC50 for CCn1ncc2c1-c1cnc(N)c(c1)OC(C)c1cc(F)cnc1-c1ccnn1C2 (centres unmarked) [Example 37] ?
**A:** 50 to 500 nM

**Q:** Which measured IC50 value corresponds to CCc1noc2c1-c1cnc(N)c(c1)O[C@H](C)c1cc(F)ccc1-c1nnnn1C2 [Example 58] ?
**A:** > 500 nM

**Q:** What value of IC50 has been reported for the following molecule? CCn1ncc2c1-c1cnc(N)c(c1)O[C@H](C)c1cc(F)ccc1-c1cc(Br)nn1C2 [Example 94]
**A:** 50 to 500 nM

**Q:** Given the entry CCn1ncc2c1-c1cnc(N)c(c1)O[C@H](C)c1cc(F)ccc1-c1ccnn1C2 [Example 1] , report its measured IC50.
**A:** 50 to 500 nM

---

I'd appreciate it if you could supply Ki values for the items below.
# Assay system: ALK L1196M/G1202R (Homo sapiens, UniProt Q9UM73, G1202R/L1196M)
# Experiment summary: Biochemical kinase assay, ALK L1196M/G1202R kinase domain
# Conditions: apparent inhibitory constant, Morrison equation; ATP 2 mM in substrate solution; read-out: ALK-L1196M-G1202R Ki^app

**Q:** Quick check: Ki of `C[C@H]1Oc2cc(cnc2N)-c2c(C#N)noc2Cn2nccc2-c2ccc(F)cc21` ?
**A:** 50 to 500 nM

**Q:** For `CCn1ncc2c1-c1cnc(N)c(c1)O[C@H](C)c1cc(F)ccc1-c1cc(OC)nn1C2` , what is its reported Ki?
**A:** < 50 nM

**Q:** GET /values?readout=Ki&item= `C[C@H]1Oc2cc(cnc2N)-c2c(cnn2CC(F)F)Cn2nc(Cl)cc2-c2ccc(F)cc21`
**A:** 50 to 500 nM

**Q:** May I ask what Ki has been recorded for `CCc1noc2c1-c1cnc(N)c(c1)O[C@H](C)c1cc(F)ccc1-c1cn(C)nc1C2` ?
**A:** < 50 nM

**Q:** Record request: Ki value, item `C[C@H]1Oc2cc(cnc2N)-c2c(cnn2CC(F)F)Cc2nn(C)nc2-c2ccc(F)cc21`
**A:** < 50 nM

**Q:** Bench note: what Ki did `CCn1ncc2c1-c1cnc(N)c(c1)O[C@H](C)c1cc(F)ccc1-c1cnnn1C2` show?
**A:** 50 to 500 nM

**Q:** So what's the measured Ki for this one? `C[C@H]1Oc2cc(cnc2N)-c2c(CC3CC3)nn(C)c2Cn2ncnc2-c2ccc(F)cc21`
**A:** < 50 nM

**Q:** I have this molecule here, `CCn1ncc2c1-c1cnc(N)c(c1)O[C@H](C)c1cc(F)ccc1-c1cc(C)nn1C2` , and I need its recorded Ki.
**A:** < 50 nM

---

# Assay system: Ba/F3 cells TPM3-TRKA (Homo sapiens, UniProt P04629)
# Construct: the other entry of the earlier key: TPM3 (P06753, Tropomyosin alpha-3 chain)
# Sequence (P04629 510-796 limits assumed): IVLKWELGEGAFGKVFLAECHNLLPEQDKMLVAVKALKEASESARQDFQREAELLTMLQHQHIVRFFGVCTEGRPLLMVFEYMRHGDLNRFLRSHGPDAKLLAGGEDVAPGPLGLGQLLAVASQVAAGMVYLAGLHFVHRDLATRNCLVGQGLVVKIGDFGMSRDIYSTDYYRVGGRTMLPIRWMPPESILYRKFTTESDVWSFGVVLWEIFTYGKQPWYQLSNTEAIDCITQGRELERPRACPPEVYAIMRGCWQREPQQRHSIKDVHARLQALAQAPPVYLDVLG
# Experiment summary: Ba/F3 cell proliferation assay, TPM3-TRKA
# Conditions: 72 hours, CellTiter-Glo, read-out: TPM3-NTRK1-wt IC50
pIC50: −log10 of the molar value.
Result type: pIC50

**Q:** Notebook entry, Ba/F3 cells TPM3-TRKA (Homo sapiens, UniProt P04629) assay: pIC50 of `Cc1cc2n(n1)Cc1cnn(CCF)c1-c1cnc(N)c(c1)O[C@H](C)c1cc(F)ccc1-2` = ?
**A:** 6.30 to 7.30

**Q:** Checklist item: pIC50 tested on Ba/F3 cells TPM3-TRKA (Homo sapiens, UniProt P04629), entry Cc1nc2c(o1)-c1ccc(F)cc1C(C)Oc1cc(cnc1N)-c1c(c(Cl)nn1CC1CC1)C2 (stereo not shown) , value?
**A:** < 6.30

**Q:** So what pIC50 did `C[C@H]1Oc2cc(cnc2N)-c2c(cnn2C2COC2)Cc2nn(C)nc2-c2ccc(F)cc21` get with Ba/F3 cells TPM3-TRKA (Homo sapiens, UniProt P04629)?
**A:** 6.30 to 7.30

**Q:** I'm curious: which pIC50 was measured for `C[C@H]1Oc2cc(cnc2N)-c2c(CC3CC3)noc2Cn2ncnc2-c2ccc(F)cc21` tested on Ba/F3 cells TPM3-TRKA (Homo sapiens, UniProt P04629)?
**A:** < 6.30

---

# Assay system: ALK L1196M/G1202R (Homo sapiens, UniProt Q9UM73, G1202R/L1196M)
# Experiment summary: Biochemical kinase assay, ALK L1196M/G1202R kinase domain
# Conditions: apparent inhibitory constant, Morrison equation; ATP 2 mM in substrate solution; read-out: ALK-L1196M-G1202R Ki^app
# Description: First, 250 nL of compound dissolved in DMSO (100-fold of the desired concentration) was dispensed into a 384-well plate. […] The plate was sealed and read by SpectraMax Paradigm at λ=485 nm every 2 minutes for 120 minutes at 30° C. Initial rates of reaction (v) were calculated from the change in fluorescence intensity over time during the initial, linear portion of the reaction. […]
Result type: Ki

**Q:** Quick one: Ki for `C[C@H]1Oc2cc(cnc2N)-c2c(cnn2C2CCC2)Cc2nn(C)nc2-c2ccc(F)cc21` ?
**A:** < 50 nM

**Q:** Reported Ki for `CCn1ncc2c1-c1cnc(N)c(c1)O[C@H](C)c1cc(F)ccc1-c1ncnn1C2` : what is it?
**A:** < 50 nM

**Q:** Entry `Cc1cc2n(n1)Cc1cnn(CCF)c1-c1cnc(N)c(c1)O[C@H](C)c1cc(F)ccc1-2` : reported Ki = ?
**A:** < 50 nM

**Q:** Recorded Ki of `C[C@H]1Oc2cc(cnc2N)-c2c(cnn2CC2CC2)Cc2ncc(F)cc2-c2ccc(F)cc21` , please.
**A:** < 50 nM

**Q:** Suppose we examine the compound `CCn1ncc2c1-c1cnc(N)c(c1)O[C@H](C)c1cc(F)ccc1-n1nc(C)nc1C2` ; what Ki value has been reported?
**A:** < 50 nM

**Q:** Data request, read-out Ki, for `CCn1nnc2c1-c1cnc(N)c(c1)O[C@H](C)c1cc(F)ccc1-c1scnc1C2`
**A:** < 50 nM

**Q:** Requested field: Ki. Item: `Cc1nn(CC2CC2)c2c1Cc1nn(C)nc1-c1ccc(F)cc1[C@@H](CO)Oc1cc-2cnc1N`
**A:** < 50 nM

**Q:** For the compound `C[C@H]1Oc2cc(cnc2N)-c2c(cnn2CC(F)F)Cc2ncc(F)cc2-c2ccc(F)cc21` , what Ki is on record?
**A:** < 50 nM

**Q:** Would you mind telling me what Ki value was observed for `CCn1ncc2c1-c1cnc(N)c(c1)O[C@H](C)c1cc(F)ccc1-c1cn(C)nc1C2` ?
**A:** < 50 nM

**Q:** Value lookup for Ki; key = CCn1ncc2c1-c1cnc(N)c(c1)OC(C)c1cc(F)cnc1-c1ccnn1C2 (stereo not shown)
**A:** 50 to 500 nM

**Q:** Which Ki is reported for this compound? `C[C@H]1Oc2cc(cnc2N)-c2c(C#N)noc2Cc2nn(C)nc2-c2ccc(F)cc21`
**A:** 50 to 500 nM

**Q:** Name the reported Ki value associated with the compound `C[C@H]1Oc2cc(cnc2N)-c2c(cnn2CC2CC2)Cn2nc(Cl)cc2-c2ccc(F)cc21`
**A:** < 50 nM

**Q:** Looking for the measured Ki of `CCc1snc2c1-c1cnc(N)c(c1)O[C@H](C)c1cc(F)ccc1-c1nn(C)nc1C2` , can you help?
**A:** 50 to 500 nM

**Q:** Requested field: Ki. Item: `Cc1nn(CC2CC2)c2c1Cn1nccc1-c1ccc(F)cc1[C@@H](C)Oc1cc-2cnc1N`
**A:** < 50 nM

**Q:** // returns reported Ki for input `C[C@H]1Oc2cc(cnc2N)-c2c(nnn2CC2CC2)Cc2nn(C)nc2-c2ccc(F)cc21`
**A:** < 50 nM

**Q:** Entry `C[C@H]1Oc2cc(cnc2N)-c2c(cnn2C2CCC2)Cn2nncc2-c2ccc(F)cc21` : reported Ki = ?
**A:** < 50 nM

---

# Assay system: Ba/F3 cells CD74-ROS1 wild-type (wt) (Homo sapiens, UniProt P08922)
# Construct: fusion of the C-terminus of ROS1 with the N-terminus of various partner proteins; the other entry of the earlier key: CD74 (P04233, HLA class II histocompatibility antigen gamma chain)
# Sequence (P08922 1883-2347 limits assumed): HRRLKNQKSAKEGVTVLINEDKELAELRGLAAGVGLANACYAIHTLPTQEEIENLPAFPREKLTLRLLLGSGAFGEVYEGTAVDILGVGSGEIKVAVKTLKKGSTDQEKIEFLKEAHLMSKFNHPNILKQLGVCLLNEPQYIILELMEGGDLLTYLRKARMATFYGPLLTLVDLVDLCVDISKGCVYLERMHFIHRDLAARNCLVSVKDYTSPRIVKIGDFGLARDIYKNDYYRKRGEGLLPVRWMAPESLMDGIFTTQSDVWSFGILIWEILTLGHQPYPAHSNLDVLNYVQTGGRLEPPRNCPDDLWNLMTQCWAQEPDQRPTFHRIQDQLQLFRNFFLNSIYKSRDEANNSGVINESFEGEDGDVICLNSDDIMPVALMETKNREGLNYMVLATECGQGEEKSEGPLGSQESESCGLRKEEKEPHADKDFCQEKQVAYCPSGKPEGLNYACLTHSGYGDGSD
# Experiment summary: Ba/F3 cell proliferation assay, CD74-ROS1 wild-type
# Conditions: 72 hours, CellTiter-Glo
pIC50: −log10 of the molar value.
Result type: pIC50

**Q:** Suppose we examine the compound CCn1ncc2c1-c1cnc(N)c(c1)OC(C)c1cc(F)ccc1-c1cccnc1C2 (centres unmarked) ; what pIC50 value has been reported?
**A:** 7.30 to 10.00

**Q:** Entry `Cc1nc2c(o1)-c1ccc(F)cc1[C@@H](C)Oc1cc(cnc1N)-c1c(c(C)nn1CC1CC1)C2` has what pIC50?
**A:** 7.30 to 10.00

**Q:** pIC50 for `C[C@H]1Oc2cc(cnc2N)-c2c(C#N)cnn2Cc2nccnc2-c2ccc(F)cc21` ?
**A:** 7.30 to 10.00

**Q:** Any idea what pIC50 was measured for `Cc1nn(CC2CC2)c2c1Cn1nc(Cl)cc1-c1ccc(F)cc1[C@@H](C)Oc1cc-2cnc1N` ?
**A:** 7.30 to 10.00

**Q:** Entry under review: `CCn1ncc2c1-c1cnc(N)c(c1)O[C@H](C)c1cc(F)ccc1-c1cc(Cl)nn1C2` . Reported pIC50?
**A:** 7.30 to 10.00

**Q:** Could you tell me which pIC50 is on file for `C[C@H]1Oc2cc(cnc2N)-c2c(cnn2CC2CC2)Cn2nc(Cl)cc2-c2ccc(F)cc21` ?
**A:** 7.30 to 10.00

**Q:** Returns the measured pIC50 for the input compound. Input: `C[C@H]1Oc2cc(cnc2N)-c2c(nnn2CC2CC2)Cc2nn(C)nc2-c2ccc(F)cc21`
**A:** 7.30 to 10.00

**Q:** Reported pIC50 for `CCn1ccc2c1-c1cnc(N)c(c1)O[C@H](C)c1cc(F)ccc1-c1nn(C)nc1C2` : what is it?
**A:** 7.30 to 10.00
